# Experimental details: Plasma protein binding in dog
# Assay type: ADME, cell-free, Canis lupus familiaris
# Conditions: read-out: PPB (converted)
Property measured: fraction unbound
Response field accepts a number only; no unit should be typed.

Query block: Data request, read-out fraction unbound, for Cc1onc(-c2ccc(F)cc2)c1COc1ccc2c(n1)CCN(C(=O)CS(C)(=O)=O)C2
Result block: 0.05

----------
# maps each entry to its Ratio
# Experimental details: Passive permeability in human Caco-2 cells assessed as permeability damage ratio at 10 uM by HPLC-UV analysis
# Format: ADME, cell-based
# Conditions: caco-2, 10 µM
The reply should be a number, written without any unit.

Worked cases, Ratio given:
INSERT INTO assay_data (compound, test_result) VALUES
  ('Cc1nnn(-c2ccc(F)cc2)c1COc1ccc2c(n1)CCN(C(=O)NC1CC(=O)N(C)C1)C2 (stereo not given)', 134),
  ('Cc1nnn(-c2ccc(F)cc2)c1COc1ccc2c(n1)CCN(C(=O)C1CCOC1)C2 (stereo not given)', 1.1),
  ('CC(=O)N1CCc2nc(OCc3c(C)nnn3-c3ccc(F)cc3)ccc2C1', 0.74),
  ('Cc1nnn(-c2ccc(F)cc2)c1COc1ccc2c(n1)CCN(C(=O)NC1CCOC1)C2 (stereo not given)', 4.7);

// below: Ratio requested for another compound
Query block: Quick one: Ratio for Cc1onc(-c2ccc(F)cc2)c1COc1ccc2c(n1)CCN(CCS(C)(=O)=O)C2=O ?
Result block: 1.1

----------
# Experimental target: Voltage-gated inwardly rectifying potassium channel KCNH2 (Homo sapiens)
# Experimental details: Inhibition of hERG expressed in CHO cells stably at -80 mV holding potential by automated patch clamp method
Property measured: IC50 (µM)
I only need the number, in µM, no unit after it.

Before answering, review these 6 worked examples.
INSERT INTO results (compound, property_measured, test_result) VALUES
  ('Cc1onc(-c2ccc(F)cc2)c1COc1ccc2c(n1)CCN(Cc1ccco1)C2=O', 'IC50', 3.5),
  ('Cc1onc(-c2ccc(F)cc2)c1COc1ccc2c(n1)CCN(C(=O)C1CCOCC1)C2', 'IC50', 5.7),
  ('Cc1onc(-c2ccc(F)cc2)c1COc1ccc2c(n1)CCNC2=O', 'IC50', 10),
  ('Cc1nnn(-c2ccc(F)cc2)c1COc1ccc2c(n1)CCN(C(=O)C1CCOC1)C2 (centres undefined)', 'IC50', 30),
  ('CC(=O)N1Cc2ccc(OCc3c(C)nnn3-c3ccc(F)cc3)nc2C1', 'IC50', 30),
  ('Cc1onc(-c2ccc(F)cc2)c1COc1ccc2c(n1)CCN(C(=O)N(C)C)C2', 'IC50', 8.3);

Query block: Could you share which IC50 value was measured for Cc1onc(-c2ccc(F)cc2)c1COc1ccc2c(n1)CCN(C(=O)CS(C)(=O)=O)C2 ?
Result block: 6.2

Query block: Entry Cc1onc(-c2ccc(F)cc2)c1COc1ccc2c(n1)CCN(C(=O)C1CCS(=O)(=O)CC1)C2 : reported IC50 = ?
Result block: 2.9

Query block: Need IC50, item Cc1onc(-c2ccc(F)cc2)c1COc1ccc2c(n1)CCN(C(=O)c1ccno1)C2
Result block: 6.4

----------
# Experimental details: […] in po dosed Wistar rat assessed as convulsive activity by assessing NOAEL by electroconvulsive test
# Format: organism-based
# Conditions: in vivo
Property measured: NOAEL

Query block: Quick one: NOAEL of Cc1onc(-c2ccc(F)cc2)c1COc1ccc2c(n1)CCN(C(=O)CS(C)(=O)=O)C2 ?
Result block: ≥ 1000 mg/kg

----------
Form field: Ki (one value per entry).
# Experimental target: GABA-A receptor; alpha-5/beta-3/gamma-2 (Homo sapiens, UniProt P18507+P28472+P31644)
# Sequence (P18507 whole entry): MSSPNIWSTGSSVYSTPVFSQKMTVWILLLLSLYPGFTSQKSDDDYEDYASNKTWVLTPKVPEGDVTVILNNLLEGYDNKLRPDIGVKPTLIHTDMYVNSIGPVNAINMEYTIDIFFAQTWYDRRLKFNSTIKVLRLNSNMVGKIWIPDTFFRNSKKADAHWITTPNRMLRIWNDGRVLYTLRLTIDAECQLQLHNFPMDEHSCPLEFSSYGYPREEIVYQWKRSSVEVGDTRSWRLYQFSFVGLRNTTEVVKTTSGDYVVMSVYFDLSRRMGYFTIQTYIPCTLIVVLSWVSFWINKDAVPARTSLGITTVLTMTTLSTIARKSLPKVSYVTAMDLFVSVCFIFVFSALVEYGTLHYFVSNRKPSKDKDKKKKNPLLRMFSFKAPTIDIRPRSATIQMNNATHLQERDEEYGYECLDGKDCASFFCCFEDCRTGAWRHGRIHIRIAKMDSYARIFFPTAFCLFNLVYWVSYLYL
# Sequence (P28472 whole entry): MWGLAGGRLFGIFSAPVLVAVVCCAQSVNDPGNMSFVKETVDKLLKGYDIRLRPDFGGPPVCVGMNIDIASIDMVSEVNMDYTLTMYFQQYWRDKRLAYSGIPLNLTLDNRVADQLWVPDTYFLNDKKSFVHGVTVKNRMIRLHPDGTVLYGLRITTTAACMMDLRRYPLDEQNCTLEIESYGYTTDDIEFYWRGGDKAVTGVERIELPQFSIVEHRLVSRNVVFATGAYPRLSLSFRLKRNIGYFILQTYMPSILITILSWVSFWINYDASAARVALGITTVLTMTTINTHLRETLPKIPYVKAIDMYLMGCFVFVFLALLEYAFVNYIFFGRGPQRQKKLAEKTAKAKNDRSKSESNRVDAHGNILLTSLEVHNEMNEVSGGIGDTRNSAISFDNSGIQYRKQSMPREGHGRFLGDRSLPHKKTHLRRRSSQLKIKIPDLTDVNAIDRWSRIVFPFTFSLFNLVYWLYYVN
# Sequence (P31644 whole entry): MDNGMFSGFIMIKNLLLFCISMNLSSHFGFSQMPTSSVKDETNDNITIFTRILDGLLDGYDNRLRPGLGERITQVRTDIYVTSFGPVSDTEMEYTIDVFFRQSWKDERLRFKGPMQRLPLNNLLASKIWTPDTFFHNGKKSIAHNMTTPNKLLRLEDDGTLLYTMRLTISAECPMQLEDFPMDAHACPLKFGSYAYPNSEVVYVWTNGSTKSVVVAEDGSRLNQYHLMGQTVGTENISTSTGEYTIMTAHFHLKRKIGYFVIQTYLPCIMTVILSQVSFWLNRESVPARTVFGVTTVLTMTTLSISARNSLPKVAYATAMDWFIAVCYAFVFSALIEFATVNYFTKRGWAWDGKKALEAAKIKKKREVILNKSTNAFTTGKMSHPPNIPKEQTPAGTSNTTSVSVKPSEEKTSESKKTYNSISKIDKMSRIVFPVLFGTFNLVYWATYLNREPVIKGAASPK
# Experimental details: Displacement of [3H]Ro151788 from human recombinant alpha5beta3gamma2 GABAA receptor stably expressed in HEK293 cell membrane assessed as inhibition constant by radioligand binding assay

INSERT INTO measurements (compound, experimental_target, property_measured, test_result) VALUES
  ('Cc1onc(-c2ccc(F)cc2)c1COc1ccc2c(n1)CCN(C(=O)c1ccno1)C2', 'GABA-A receptor; alpha-5/beta-3/gamma-2 (Homo sapiens, UniProt P18507+P28472+P31644)', 'Ki', '4.6 nM'),
  ('Cc1onc(-c2ccc(F)cc2)c1COc1ccc2c(c1)CCNC2=O', 'GABA-A receptor; alpha-5/beta-3/gamma-2 (Homo sapiens, UniProt P18507+P28472+P31644)', 'Ki', '10 nM');

Query block: Give Ki (GABA-A receptor; alpha-5/beta-3/gamma-2 (Homo sapiens, UniProt P18507+P28472+P31644)) of the following compound: Cc1onc(-c2ccc(F)cc2)c1COc1ccc2c(n1)CCN(C(=O)C1CCCO1)C2 (stereo unspecified)
Result block: 9.9 nM

Query block: What measured Ki is associated with Cc1onc(-c2ccc(F)cc2)c1COc1ccc2c(n1)CCN(C1CCOC1)C2=O (stereo unspecified) on GABA-A receptor; alpha-5/beta-3/gamma-2 (Homo sapiens, UniProt P18507+P28472+P31644)?
Result block: 8 nM

Query block: Observed Ki on GABA-A receptor; alpha-5/beta-3/gamma-2 (Homo sapiens, UniProt P18507+P28472+P31644) for CC(=O)N1Cc2ccc(OCc3c(C)nnn3-c3ccc(F)cc3)nc2C1 , please.
Result block: 3.2 nM

Query block: # value lookup — system GABA-A receptor; alpha-5/beta-3/gamma-2 (Homo sapiens, UniProt P18507+P28472+P31644), readout Ki, item Cc1onc(-c2ccc(F)cc2)c1COc1ccc2c(n1)CCN(C(=O)N1CCCC1)C2
Result block: 7.3 nM

Query block: Write down the reported Ki of Cc1onc(-c2ccc(F)cc2)c1COc1ccc2c(n1)CCN(CCS(C)(=O)=O)C2=O , test system: GABA-A receptor; alpha-5/beta-3/gamma-2 (Homo sapiens, UniProt P18507+P28472+P31644).
Result block: 7.7 nM

----------
// reported pIC50 per item
# Experimental target: Voltage-gated inwardly rectifying potassium channel KCNH2 (Homo sapiens, UniProt Q12809)
# Sequence (Q12809 whole entry): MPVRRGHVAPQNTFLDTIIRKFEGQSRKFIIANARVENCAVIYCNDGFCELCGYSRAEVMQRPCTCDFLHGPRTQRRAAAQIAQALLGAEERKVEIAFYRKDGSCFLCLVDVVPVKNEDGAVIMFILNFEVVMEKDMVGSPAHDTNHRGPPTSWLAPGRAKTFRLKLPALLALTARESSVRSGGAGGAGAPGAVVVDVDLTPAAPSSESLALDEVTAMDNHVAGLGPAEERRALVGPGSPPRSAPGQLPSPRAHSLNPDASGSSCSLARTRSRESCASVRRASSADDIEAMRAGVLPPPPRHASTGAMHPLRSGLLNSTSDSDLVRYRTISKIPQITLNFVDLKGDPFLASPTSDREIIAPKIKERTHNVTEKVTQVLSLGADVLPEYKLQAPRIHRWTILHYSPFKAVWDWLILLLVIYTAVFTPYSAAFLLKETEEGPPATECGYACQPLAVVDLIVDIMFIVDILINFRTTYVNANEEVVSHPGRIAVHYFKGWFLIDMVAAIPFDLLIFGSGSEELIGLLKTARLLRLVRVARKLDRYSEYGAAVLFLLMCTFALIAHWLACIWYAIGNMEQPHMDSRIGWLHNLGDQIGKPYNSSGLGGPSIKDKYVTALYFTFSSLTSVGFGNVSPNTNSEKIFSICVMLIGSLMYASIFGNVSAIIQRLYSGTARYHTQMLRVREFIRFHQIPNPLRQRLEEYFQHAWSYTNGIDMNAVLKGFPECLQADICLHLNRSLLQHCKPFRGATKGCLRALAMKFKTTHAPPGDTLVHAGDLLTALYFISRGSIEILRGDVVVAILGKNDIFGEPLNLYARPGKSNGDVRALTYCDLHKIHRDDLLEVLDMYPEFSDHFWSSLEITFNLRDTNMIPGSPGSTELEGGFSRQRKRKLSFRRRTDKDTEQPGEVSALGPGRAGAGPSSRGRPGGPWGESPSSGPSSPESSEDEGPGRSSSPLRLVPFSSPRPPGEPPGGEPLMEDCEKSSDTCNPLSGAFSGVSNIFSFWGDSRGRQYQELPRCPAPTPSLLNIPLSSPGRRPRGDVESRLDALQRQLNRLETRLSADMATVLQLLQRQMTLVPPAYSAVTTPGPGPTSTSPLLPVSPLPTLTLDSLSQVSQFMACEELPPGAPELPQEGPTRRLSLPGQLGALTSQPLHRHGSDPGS
# Experimental details: Inhibition of hERG expressed in CHO cells stably at -80 mV holding potential by automated patch clamp method
Notebook: values listed as pIC50 are -log10 of the concentration (mol/L).

INSERT INTO assay_data (structure_as_smiles, test_result) VALUES
  ('Cc1onc(-c2ccc(F)cc2)c1COc1ccc2c(n1)CCN(C(=O)N1CCCCC1)C2', 5.00),
  ('Cc1onc(-c2ccc(F)cc2)c1COc1ccc2c(n1)CCN(C(=O)N1CCOCC1)C2', 5.04);

Now consider the entry below.
Query block: What does the record list as pIC50 for Cc1onc(-c2ccc(F)cc2)c1COc1ccc2c(n1)CCN(C(=O)N1CCCC1)C2 ?
Result block: 5.00

----------
# Experimental details: Metabolic stability in human liver microsomes assessed as intrinsic clearance at 2.5 uM
# Format: ADME, Microsome
# Conditions: read-out: CLH
Property measured: microsomal CLint at 2.5 µM (µL/min/mg)
API: value field is a number in µL/min/mg; no unit string.

Field: example entries. Status: answers known.
INSERT INTO results (compound, property_measured, test_result) VALUES
  ('CCC(=O)N1CCc2nc(OCc3c(C)nnn3-c3ccc(F)cc3)ccc2C1', 'microsomal CLint at 2.5 µM', 48),
  ('Cc1onc(-c2ccc(F)cc2)c1COc1ccc2c(n1)CCN(C(=O)C1CC1)C2', 'microsomal CLint at 2.5 µM', 71),
  ('Cc1onc(-c2ccc(F)cc2)c1COc1ccc2c(n1)CCN(C(=O)C1CCCO1)C2 (centres undefined)', 'microsomal CLint at 2.5 µM', 42);

Moving on to the next compound.
Query block: State the recorded microsomal CLint at 2.5 µM for this entry: Cc1onc(-c2ccc(F)cc2)c1COc1ccc2c(n1)CCN(C(=O)N1CCCC1)C2
Result block: 45

----------
# Experimental details: Metabolic stability in human liver microsomes assessed as intrinsic clearance at 2.5 uM
# Type: ADME, Microsome
# Conditions: read-out: CLH
Could you label it class 1 if measured microsomal CLint at 2.5 µM is 20 µL/min/mg or higher, and class 0 otherwise?

Sample answers from the record:
INSERT INTO measurements (compound, assigned_class) VALUES
  ('Cc1onc(-c2ccc(F)cc2)c1COc1ccc2c(n1)CCNC2=O', 'class 0'),
  ('Cc1onc(-c2ccc(F)cc2)c1COc1ccc2c(n1)CCN(C(C)C)C2=O', 'class 0'),
  ('Cc1nnn(-c2ccc(F)cc2)c1COc1ccc2c(n1)CCN(CCS(C)(=O)=O)C2=O', 'class 0'),
  ('Cc1onc(-c2ccc(F)cc2)c1COc1ccc2c(n1)CCN(C)C2=O', 'class 1');

Query block: Assess whether reported microsomal CLint at 2.5 µM for Cc1onc(-c2ccc(F)cc2)c1COc1ccc2c(n1)CCN(C(=O)C1CCOC1)C2 (stereo not given) sits at 20 µL/min/mg or higher.
Result block: class 1

Reference source: ChEMBL document CHEMBL5154916
